Assay: soluble fraction after stress (log2 fold change); higher = more stays soluble; pooled small domains, quantitative proteomics
Details: stress: pH 4
measure: soluble fraction (log2)
Write the value as a bare number.

Completed entries (count: 3):
>  <sequence-code>
HMLTTMSSQWKPSLDAIEILEKSGIAYSFIEDAIPEFVLYWRERGISHGAWNTKFVEHIRKQWAKFEAS

>  <soluble fraction (log2)>
0.21

$$$$
>  <sequence-code>
HMSDPSRKADFIAALSSLGGSAGNGKLREQLGWDEPTYDAVKQTLLDEGAITNGRGRGGSVALAG

>  <soluble fraction (log2)>
0.146

$$$$
>  <sequence-code>
HMGVITVRPPIVVRDFAIALNLKPFQVIGNLMELNKVVSVSSVIEEADARKVAERHGYTLEIRH

>  <soluble fraction (log2)>
-0.133

$$$$

Let us examine a further case.
Query :: Quickly give me recorded soluble fraction (log2) for `HMTGSAETRGITLTDEQVTVWAKDGSWANYVYRATDGNWYDGSGRLYYENGGGEWTQAATGEQGS`
Result :: -1.68

###

Below, each entry is listed with its recorded soluble fraction (log2).
Assay: soluble fraction after stress (log2 fold change); higher = more stays soluble; pooled small domains, quantitative proteomics
Conditions: stress: pH 4
Lab note: jot the number down without any unit.

>  <sequence-code>
HMEETEVPPVTGYEQSKASEVLTGKGLIPDIITVADEETAAGYVIRTDPASGEKVPSGTTVKVYVSSGP

>  <soluble fraction (log2)>
-0.0585

$$$$
>  <sequence-code>
HMQLASILDDIPGIGKKRKENLLTHFGSFSKIQSADIDALAEVPGISRDLAETIHTYLKTHQ

>  <soluble fraction (log2)>
-0.0521

$$$$

Query :: Recall and state the measured soluble fraction (log2) for `HMRSPLYVQIKQHILGDIRKGVWKPGEKLPTELDLAERFGVSVGTVRRAMGGLEDEGIISRREGSGTFVRT` .
Result :: 0.229

Query :: Fill in soluble fraction (log2) for record `HMPVTAQFDFSKVLAGRTLKDGEFSFVLKDKNGTVLQTKTNDASGKVAFDALIYKNNEVGEHKYTVEEVI`
Result :: 0.294

Query :: Query soluble fraction (log2) for `HMDLLAESLTRREAEVAALAARGLTNRAIAELFGLSVRTAETHLHRAMGKLGANRREDLLLHADRLDPG`
Result :: -0.618

Query :: Kindly indicate its recorded soluble fraction (log2). Item: `HMRQPRGQRVTVREASSLLPFLFAHLTDRSRSAVKSLLRHGQIWVNGRVTTHFDMPLRPGDTVLISHERG`
Result :: -0.233

Query :: Determine from records and report soluble fraction (log2) for `HMSSLTDNFVKALSYYLALSGKSKKEVADGIGIPPTTFSSWSNGKHLPDMDRLQNLATYLGAPVSEFFDFT`
Result :: 0.051

Query :: Name the recorded soluble fraction (log2) of the sequence listed here: `HMSATQDAAIAVRIRDILSELDGYEDVTVTVTSGIVTMRGTTLDSEKIARLNDLTGRVEGVVAIENSVTET`
Result :: -2.31

Query :: Please give the documented soluble fraction (log2) of `HMVSGLEILKIQVQDHPSDWRWALLLARTHYENGNREAAVRTLRPLQRLHPDRLEVMTLWALLA`
Result :: -0.222

Query :: Identify soluble fraction (log2) associated with the sequence `HMREPIPVPSRPIRAGDLVEIPGTNRPAEVTAVKGDRLVLKAGVLSMTVKNDEVRLIEDDERAAM`
Result :: 0.208

Query :: For `HMDVLFGNRLRQLLDERNISQAHFADRIGVSRSRMNNYVAQRSEPDYATLIRIANTLDTSIDFLLGKS` , write its soluble fraction (log2).
Result :: -0.45

Query :: Hello, please tell me recorded soluble fraction (log2) for this one: `HMEITRDTVIQWLEAERRSQTWLSKQLGVSVQAVSNWLREKNPQTISASAQITIRALMEEDAAK`
Result :: 0.00665

Query :: For `HMITVPKVINMSETQARQTLDALGLNVTLSATQVMNDKIPYGYVAAQSYSAGKEVPAGTTIELTMSIGL` , write its soluble fraction (log2).
Result :: 0.0236

Query :: Return value of soluble fraction (log2) for input `HMQPDYRVLYSNFSDKDGGAIVAALEKMNVPYKFSEGGSAILVPAGQVHQARLKLAADGLPK` , no commentary.
Result :: 0.205

Query :: Dear colleague, please send me the reported soluble fraction (log2) for `HMGDPEYFKKQLGDFMDRFNITSEDIKNLSIAGAINRMMNNAEGEDKTVLSKLLETVNKSGVGNLPAKTI` when you can.
Result :: -0.144

Query :: Return soluble fraction (log2) (reported value) for this sequence: `HMEYKKKIGELLIDGNKKLKAANIDTYILDTQLLLGKVLGKDKLYLITNKDEEVSNFKEREFYSLIEKRI`
Result :: -0.304

Query :: Dear colleague, please send me the reported soluble fraction (log2) for `HMAVRTELLALPAGWHGDASRLSTALAALQGVREAVVIASEGVAYLKVHGHDWDRDGARELLQN` when you can.
Result :: -0.199

The reported numbers originate from the domain aggregation screens of Martell et al. (2025).
